system: MDA-MB-435; test: NCI tumour cell line growth inhibition, 48 h
compounds and their reported TGI

Example entries and their recorded answers appear below.
- compound: "CO/N=C(\\C)CCC#Cc1ccccc1C(=O)OC"
  experimental-endpoint: "TGI"
  result: "> 10 µM"
- compound: "COc1ccc(/C=C2\\CCC(C)C3=C2N=c2s/c(=C/c4cccc(Br)c4)c(=O)n2C3c2ccc(OC)c(OC)c2)cc1OC (stereo not drawn)"
  experimental-endpoint: "TGI"
  result: "> 100 µM"

Consider the additional compound presented here.
According to the records, this compound `CCCCn1c2c(n(CCCC)c1=S)-c1c(n(CCCC)c(=S)n1CCCC)SSc1c(n(CCCC)c(=S)n1CCCC)-c1c(n(CCCC)c(=S)n1CCCC)SSc1c(n(CCCC)c(=S)n1CCCC)-c1c(n(CCCC)c(=S)n1CCCC)SS2` displays TGI of > 42.1 µM
